- methodNotes: Half life in Sprague-Dawley rat at 5 mg/kg, po
- Type: ADME, organism-based
- Design: dose 5 mg/kg, route oral
- condition: in vivo

molecularString	half-life [h]
C=C(CNN)c1ccccc1.Cl	11.3

###

- methodNotes: Cmax in Sprague-Dawley rat at 5 mg/kg, po
- Type: ADME, organism-based
- Design: dose 5 mg/kg, route oral
- condition: in vivo

molecularString	Cmax, ng/mL
C=C(CNN)c1ccccc1.Cl	366

###

- methodNotes: AUC (infinity) in Sprague-Dawley rat at 5 mg/kg, po
- Assay type: ADME, organism-based
- Set-up: time infinity, dose 5 mg/kg, route oral
- condition: plasma

molecularString	AUC(0-inf) / ng·h/mL
C=C(CNN)c1ccccc1.Cl	3310
